Multiple publications report pKi for 5-hydroxytryptamine receptor 2A (Homo sapiens, UniProt P28223); what follows is a combined list.
Numbers only, as −log10 of the molar value.

# return pKi for each item in the list
1. C#CCN(C)Cc1ccc(OCCCCCN2CCN(c3cccc4c3ccn4S(=O)(=O)c3ccccc3)CC2)cc1
2. C[C@@H]1NC(N)=Nc2cccc(Cl)c21
3. COc1ccccc1N1CCN(CCCNC(=O)Nc2ccccc2-c2ccc(-c3ccccc3)cc2)CC1
4. CC(C)(C)OC(=O)N1CCCC1CNC1CCC(c2cc(F)ccc2F)(S(=O)(=O)c2ccc(Cl)cc2)CC1 (stereo not given)
5. O=C1NCc2cc(Cl)c(OCCCCN3CCN(c4cccc5cccc(F)c45)CC3)cc21
6. CC(=O)OC12C=C(C)C(C(C)C1)C1C(=O)N(CCCCN3CCN(Cc4ccccc4)CC3)C(=O)C12 (stereo not given)
7. Cn1ccc2cc3c(cc21)CCN3C(=O)Nc1cccnc1
8. O/N=C/c1cnn2ccc(OCCCCN3CCN(c4cccc(Cl)c4Cl)CC3)cc12 (stereo in doubt; 8a)

1: 6.38; 2: 6.59; 3: 6.80; 4: 6.32; 5: 7.60; 6: 5.01; 7: 5.79; 8: 8.11
